Reference source: PubChem BioAssay

Experiment: small-molecule microarray binders of probe aDKK1, primary screen, biochemical, biotinylated probe, 635/667 nm fluorescence (AID 1099);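 note: score merges 667nm spot fluorescence with signal to noise across triplicate slides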
Settings: higher = more signal
Task for the reader: assign each of the following compounds its reported composite z-score.
One number for each entry.

For orientation, consider the following solved cases.
[[record]]
compound = "COCCOC(=O)N1C(=O)[C@@]2(c3cc(C#CCNC(N)=O)ccc31)[C@H](C(=O)Nc1nc3ccccc3s1)[C@H]1C(=O)O[C@H](c3ccccc3)[C@H](c3ccccc3)N1[C@@H]2c1ccc(O)cc1"
reported = 0.406

[[record]]
compound = "C=CCNC(=O)[C@@H]1[C@H]2C(=O)O[C@H](c3ccccc3)[C@H](c3ccccc3)N2[C@H](c2ccc(OCCO)cc2)[C@@]12C(=O)Nc1ccc(C#CCNC(N)=O)cc12"
reported = -0.123

[[record]]
compound = "O=C1OC[C@@H](c2ccccc2)n2cc(/C=C/c3ccccc3)cc21"
reported = -0.222

[[record]]
compound = "O=C1N(Cc2ccccc2)c2ccccc2C[C@@]12N=C(c1ccc(OCCCO)cc1)O[C@H]2c1ccccc1"
reported = 0.184

[[record]]
compound = "COC(=O)[C@@]1(Cc2ccccc2)[C@H]2c3cc(C(=O)N(C)C)n(Cc4nc5ccccc5[nH]4)c3C[C@H]2CN1C(=O)c1ccccc1"
reported = 0.52


Look at each compound and report its composite z-score.
1. C=C[C@@H](CO)NS(=O)(=O)c1ccc(Br)cc1
2. CN1C(=O)C2C=CC(C(O)c3ccc(I)cc3)N(N(c3ccccc3)c3ccccc3)C2C1=O (configuration not stated)

Output:
1. -0.267
2. -0.0078

###

Assay: inhibitors of hydroxyurea-induced Chk1 phosphorylation, primary screen, imaging, HeLa, phospho-Chk1 nuclear intensity (AID 1187); note: test concentration not given here
Settings: hydroxyurea-induced phospho-Chk1 immunofluorescence imaging, higher = more signal
Task for the reader: assign each of the following compounds its reported z-score.
Numbers only.

[[record]]
compound = "[N-]=[N+]=Nc1ccccc1C[C@@]1(C(=O)NCc2ccccc2)N=C(c2ccc(OCCCO)cc2)O[C@@H]1c1ccccc1"
reported = -0.942

[[record]]
compound = "COc1cccc(C)c1NC(=O)O[C@H]1[C@H](OC(=O)Nc2ccc3c(c2)OCO3)[C@H](OC(=O)Nc2ccc3c(c2)OCO3)[C@@H](OC)O[C@@H]1CO"
reported = -1.29

[[record]]
compound = "O=C1c2ccccc2[C@@]2(Cc3ccccc3N(CC(F)(F)F)C2=O)[C@H](c2ccc(CO)cc2)N1Cc1ccccc1"
reported = -0.494


Note: attention shifts to another entry.
Input: Field request: z-score | item: CC1CC/C=C\[C@H]2OC34C=CCN(CCN5CCOCC5)C(=O)[C@H]3N(C(CO)C(C)C)C(=O)[C@@H]4C2C(=O)O1 (some centres undefined)
Output: 0.284

###

Test: cell viability in Huh7 cells, primary screen, cytotoxicity control for HCV replication inhibitor project, CellTiter-Glo luminescence, basal, 48 h (AID 1143);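 note: Huh7 hepatoma cells carrying a hepatitis C replication reporter with no stimulus; test concentration not given here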
Details: Huh7 HCV replicon, higher = more signal, called active from +8 up or from −8 down
Task for the reader: assign each of the following molecules its reported z-score.
Answers are plain numbers.

For orientation, consider the following solved cases.
[[record]]
molecule = "C[C@@]1([C@@H](NS(=O)(=O)c2cccc3cccnc23)c2ccc(-c3ccccc3)cc2)C[C@H]1C1CCCCC1"
reported = -2.15

[[record]]
molecule = "CC(C)c1ccc(NN2C(C(O)C(C)c3ccccc3)C=CC3C(=O)N(c4ccccc4)C(=O)C32)cc1 (stereo not given)"
reported = 0.0469

[[record]]
molecule = "COc1ccc([Si](C)(C)[C@@H]2[C@@H](CC(=O)N3Cc4ccccc4C[C@H]3CO)O[C@]3(C(=O)N(Cc4ccc(I)cc4)c4ccccc43)[C@H]2C)cc1"
reported = -6.3

[[record]]
molecule = "CCCCC(=C=CC[C@H](O)c1cccc(OCCO)c1)C[C@H](O)c1cc(Cl)cc(Cl)c1O"
reported = -0.705


Look at each molecule and report its z-score.
1. C=CCNC(=O)[C@H]1[C@@H]2C(=O)O[C@@H](c3ccccc3)[C@@H](c3ccccc3)N2[C@@H](c2ccc(OCCO)cc2)[C@]12C(=O)Nc1ccc(C#Cc3ccc(OC)cc3)cc12
2. CCCCN1CC=CC23O[C@@H]4/C=C\CCCOC(=O)C4[C@H]2C(=O)N(CCCCCCO)[C@@H]3C1=O (stereo not given in full)
3. COC(=O)C(CC#Cc1ccc2c(c1)[C@]1(C(=O)N2)[C@H](C(=O)NC[C@H](O)c2ccccc2)[C@H]2C(=O)O[C@H](c3ccccc3)[C@H](c3ccccc3)N2[C@@H]1c1ccc(O)cc1)C(=O)OC
4. CCN1C(=O)C2CC(=O)C3C(CN(S(=O)(=O)c4ccc(C)cc4)C3c3ccc(C)cc3)C2C1=O (stereo not given)
5. CC(C)Cc1ccc(CN2CC[C@@H](NC(=O)c3ccccc3)C2)cc1
6. CC(C)N1CC=CC23O[C@@H]4/C=C\CCCOC(=O)C4[C@H]2C(=O)N(C(C)CO)[C@@H]3C1=O (stereo not given in full)
7. C[N+](C)(C)CCCC[C@@H]1NC(=O)[C@H]2C[C@@H](C(=O)NCCCCCN)[C@@H](c3ccc(O)cc3)N2C1=O
8. CC(C)[Si]1(C(C)C)OCc2cc(-c3ccc(-c4ccc(Cl)c(Cl)c4)o3)nc(-c3ccc(Oc4ccccc4)cc3)c21

Output:
-3.41
0.121
-0.187
-1.49
-2.65
0.282
-0.147
-0.558

Look at each molecule and report its z-score.
1. C=CCNC(=O)[C@H]1[C@@H]2C(=O)O[C@@H](c3ccccc3)[C@@H](c3ccccc3)N2[C@@H](c2ccc(O)cc2)[C@]12C(=O)Nc1ccccc12
2. C=C(C(=O)CC[C@@H](OC(=O)c1ccccc1-c1ccccc1C(=O)O)c1ccc(CO)o1)C(C)C
3. CCCCN1CC=CC23O[C@@H]4C=CCCOC(=O)C4[C@H]2C(=O)N(CCO)[C@@H]3C1=O (stereo not given in full)

Output:
1: -0.792; 2: -0.115; 3: 0.142
